Biological target: T1, full-length beta-Catenin (Uniprot ID P35222) (Homo sapiens (Human), UniProt P35222 2-781)
T1 construct: the AlphaScreen assay uses a Histidine (Nickel Chelate) detection kit, so a His tag is likely there; also called B-Catenin; bCat
T1 sequence: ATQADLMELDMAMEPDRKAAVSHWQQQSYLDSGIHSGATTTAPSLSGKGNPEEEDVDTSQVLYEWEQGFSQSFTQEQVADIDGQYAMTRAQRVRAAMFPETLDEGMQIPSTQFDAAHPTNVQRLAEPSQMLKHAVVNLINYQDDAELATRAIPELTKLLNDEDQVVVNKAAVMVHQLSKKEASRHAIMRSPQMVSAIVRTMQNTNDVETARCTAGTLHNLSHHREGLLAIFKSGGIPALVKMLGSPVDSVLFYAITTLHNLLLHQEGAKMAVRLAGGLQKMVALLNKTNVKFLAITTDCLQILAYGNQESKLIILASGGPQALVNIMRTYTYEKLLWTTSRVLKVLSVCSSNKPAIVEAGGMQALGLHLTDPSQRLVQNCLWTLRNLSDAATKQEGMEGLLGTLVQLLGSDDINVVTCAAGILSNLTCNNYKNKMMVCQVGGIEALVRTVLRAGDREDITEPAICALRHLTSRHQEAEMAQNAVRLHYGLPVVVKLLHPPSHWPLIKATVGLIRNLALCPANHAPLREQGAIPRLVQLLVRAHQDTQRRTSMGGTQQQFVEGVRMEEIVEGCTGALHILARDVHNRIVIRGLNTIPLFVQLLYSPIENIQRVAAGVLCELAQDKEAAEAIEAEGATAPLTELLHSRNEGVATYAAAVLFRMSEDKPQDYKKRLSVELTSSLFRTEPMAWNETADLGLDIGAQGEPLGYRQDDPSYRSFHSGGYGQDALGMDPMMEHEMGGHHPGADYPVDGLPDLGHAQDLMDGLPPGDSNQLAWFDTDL
Assay: AlphaScreen competition; full-length beta-catenin with biotin-TCF4(10-53) probe as competitor
Starred links: 1 amine or outer side, 2 acyl side, 3 side chain; linkers in the order of their positions; H or OH if unused. Positions of bridges follow the written chain, without caps; N, C: chain ends. Non-standard residues stand in square brackets, D forms with d. Primed or numbered codes have the meaning given here. RdN″ = (R)-4-(((allyloxy)carbonyl)(methyl)amino)-2-amino-2-methylbutanoic acid (stapling residue), C=CCOC(=O)N(C)CC[C@@](C)(N[*:1])C(=O)[*:2]; B5(5) = 2,2-bis(4-pentenyl)glycine, 2-amino-2-(pent-4-en-1-yl)hept-6-enoic acid (stitching residue), C=CCCCC(CCCC=C)(N[*:1])C(=O)[*:2]; Trp(5-cPr) = 5-cyclopropyl-L-tryptophan (5CpW), O=C([C@H](Cc1c[nH]c2ccc(C3CC3)cc12)N[*:1])[*:2]; B5 = 2-amino-2-(pent-4-en-1-yl)hept-6-enoic acid, C=CCCCC(CCCC=C)(N[*:1])C(=O)[*:2]; S7 = C[C@@](CCCCCC=[*:3])(N[*:1])C(=O)[*:2]; αAllylPro = C=CC[C@@]1(C(=O)O)CCCN1; S8 = C=CCCCCCC[C@](C)(N)C(=O)O
Give EC50 for every item shown.

Kindly note the recorded EC50 for Ac-[αAllylPro]DA[B5]DEAAFV[S8]F[Trp(5-cPr)]Q-NH2 (staple 1-4, 4-11, stapled peptide) [I-170] , which is 4670 nM

For reference, reported EC50 for Ac-ADI[RdN″]DEAAFQ[S7]FW-NH2 (staple 4-11, stapled peptide composition) [I-148] stands at 398 nM

EC50 measured on Ac-[αAllylPro]DI[B5(5)]DDAAFQ[S8]FWH-NH2 (staple 1-4, 4-11, stapled peptide) [I-175] = 116 nM
